System: biotinyl-Val-oxazolone
Test: self-aminoacylation, catalytic enhancement (BVO) (fold over background); higher = more active; k-Seq, kA / k0A0; sequences stand for … in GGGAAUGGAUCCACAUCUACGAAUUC…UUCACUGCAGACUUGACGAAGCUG
Variants at the floor of the assay were thinned out.
Parameter threshold = 0.8. Response is satisfied when self-aminoacylation meets or exceeds it, else not satisfied.

biopolymer-sequence | discrete-label
AUUACCCUGCUCAUCGAGAGA [Fam2.1 aminoacylation ribozyme variant] | satisfied
AAGUUUGCUCAUACUCGCAAG [Fam3.1 aminoacylation ribozyme variant] | not satisfied
GUACUCCAAACAAUCGGUCUG [Fam1A.1 aminoacylation ribozyme variant] | satisfied

Decide: is the reported value of self-aminoacylation for AUUACCAUGGUCAUCGAGUAA [Fam2.1 aminoacylation ribozyme variant] equal to or greater than 0.8?
satisfied

---

Tested on: biotinyl-Met-oxazolone
Assay: self-aminoacylation, catalytic enhancement (BMO) (fold over background); higher = more active; k-Seq, kA / k0A0; sequences stand for … in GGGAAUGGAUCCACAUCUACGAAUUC…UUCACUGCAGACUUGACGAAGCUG
Fewer inactive variants are shown than the library holds.
Give fulfilled when the value for self-aminoacylation is at least 6. Give not fulfilled when it is less.

Consider the worked cases shown below.
biopolymer-sequence | discrete-label
CCACACUUCAAGCAGUCUGUC [Fam1B.1 aminoacylation ribozyme variant] | not fulfilled
AUUGACCUAAGUCAUCGGGUG [Fam2.2 aminoacylation ribozyme variant] | fulfilled
AUUAACCUGGUCAUCGAGGGA [Fam2.1 aminoacylation ribozyme variant] | not fulfilled

Reported self-aminoacylation at or above 6? CUACUUCAAACAAUCGGUCGA [Fam1A.1 aminoacylation ribozyme variant]
not fulfilled

---

System: biotinyl-Trp-oxazolone
Assay: self-aminoacylation, catalytic enhancement (BWO) (fold over background); higher = more active; k-Seq, kA / k0A0; sequences stand for … in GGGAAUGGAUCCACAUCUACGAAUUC…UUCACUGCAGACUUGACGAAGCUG
Fewer inactive variants are shown than the library holds.
measured-property: self-aminoacylation
// return a plain number; no unit text

Guide cases for self-aminoacylation, answers given:
biopolymer-sequence | numeric-value
GAGUUUGCGAAUAGUCGCAAG [Fam3.1 aminoacylation ribozyme variant] | 2.35
AUUACCAUGGUCAUCGCGUGA [Fam2.1 aminoacylation ribozyme variant] | 26.7
AUUACCCUGGGCGUCGAGUGA [Fam2.1 aminoacylation ribozyme variant] | 1.04
AUUGCACUGGUCAUCGAGUGA [Fam2.1 aminoacylation ribozyme variant] | 6.67
AUUCACCGUGGUCAUCGGGUG [Fam2.2 aminoacylation ribozyme variant] | 8.84
UUACUUCAAACAAUCGGCCUG [Fam1A.1 aminoacylation ribozyme variant] | 43.2

Name the recorded self-aminoacylation for CUAAUUCUAACAAUCGGUCUG [Fam1A.1 aminoacylation ribozyme variant] .
0.474

# input sequence: AUCGCCCUGGUCAUCGAGUGA [Fam2.1 aminoacylation ribozyme variant] ; wanted: its self-aminoacylation
17.8

Fill in: self-aminoacylation of CCACACUUCAAACAAUCGGCC [Fam1B.1 aminoacylation ribozyme variant] is ___
7.9

---

self-aminoacylation: recorded values
System: biotinyl-Met-oxazolone
Assay: self-aminoacylation, catalytic enhancement (BMO) (fold over background); higher = more active; k-Seq, kA / k0A0; sequences stand for … in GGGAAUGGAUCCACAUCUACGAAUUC…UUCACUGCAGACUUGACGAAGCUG
Fewer inactive variants are shown than the library holds.

Completed entries (count: 8):
biopolymer-sequence | self-aminoacylation
CCACACUUCAAUCAAUCGGUC [Fam1B.1 aminoacylation ribozyme variant] | 1.05
AUACACCUAGGUCAUCGGAUG [Fam2.2 aminoacylation ribozyme variant] | 0.978
CCACGCUUAAAGCAAUCGGUC [Fam1B.1 aminoacylation ribozyme variant] | 0.741
AAGUUGGCUAAUAUUCGCAAG [Fam3.1 aminoacylation ribozyme variant] | 1.85
GAGUUUGCUAAUAGUCGCGAG [Fam3.1 aminoacylation ribozyme variant] | 1.63
AUUACCUUGAUCAUCGAGUGA [Fam2.1 aminoacylation ribozyme variant] | 8.63
AUUCACCUAGGUCAUGGGAUG [Fam2.2 aminoacylation ribozyme variant] | 0.66
AUUACCCUGGCCACCGAGUGA [Fam2.1 aminoacylation ribozyme variant] | 4.99

Next item in the queue.
Value lookup for self-aminoacylation; key = AUGCAGCUAGGUCAUCGGGUG [Fam2.2 aminoacylation ribozyme variant]
3.73

---

// self-aminoacylation lookup, one value per entry
Test system: biotinyl-Trp-oxazolone
Assay: self-aminoacylation, catalytic enhancement (BWO) (fold over background); higher = more active; k-Seq, kA / k0A0; sequences stand for … in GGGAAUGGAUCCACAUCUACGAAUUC…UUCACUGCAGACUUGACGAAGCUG
Fewer inactive variants are shown than the library holds.
Field format: numeric only.

biopolymer-sequence | target-system | numeric-value
AUUCACCUGGGACAUCGGGUG [Fam2.2 aminoacylation ribozyme variant] | biotinyl-Trp-oxazolone | 5.11
AAGUUUGCUUAGAGUCGCAAG [Fam3.1 aminoacylation ribozyme variant] | biotinyl-Trp-oxazolone | 1
AUUUAGCUAGGUCAUCGGGUG [Fam2.2 aminoacylation ribozyme variant] | biotinyl-Trp-oxazolone | 6.01
AUUACCCUGGUCAUGGAGUGA [Fam2.1 aminoacylation ribozyme variant] | biotinyl-Trp-oxazolone | 5.8
AUUCACCUAGGUCAUGGUGUG [Fam2.2 aminoacylation ribozyme variant] | biotinyl-Trp-oxazolone | 0.519
AAGUUUGCUCAUAGUAGCAAG [Fam3.1 aminoacylation ribozyme variant] | biotinyl-Trp-oxazolone | 0.786
CUACUUCAUACAAUCGGUCAG [Fam1A.1 aminoacylation ribozyme variant] | biotinyl-Trp-oxazolone | 0.721
AAGUUUGCUAAUCGCCGCAAG [Fam3.1 aminoacylation ribozyme variant] | biotinyl-Trp-oxazolone | 4.38

Look at this sequence and give its reported self-aminoacylation. UUACUUCAAACAAUUGGUCUG [Fam1A.1 aminoacylation ribozyme variant]
1.61

Quick one: self-aminoacylation of AUUACGCUGGUCAUCGAGUGG [Fam2.1 aminoacylation ribozyme variant] ?
1.73

Form field: reported self-aminoacylation of AUUACCGUUGUCAUCGAGUGA [Fam2.1 aminoacylation ribozyme variant]
9.94

Item under review: AUCCACCAAGGUCAUCGGGUG [Fam2.2 aminoacylation ribozyme variant] . Reported self-aminoacylation?
7.83

Fill in the blank: the reported self-aminoacylation of UUACACCUAGGUCAUCGGGUG [Fam2.2 aminoacylation ribozyme variant] is ____.
3

Which self-aminoacylation value is on record for CUACUUCAAACAAUCGGUCGG [Fam1A.1 aminoacylation ribozyme variant] ?
17.3

---

System: biotinyl-Val-oxazolone
Assay: self-aminoacylation, catalytic enhancement (BVO) (fold over background); higher = more active; k-Seq, kA / k0A0; sequences stand for … in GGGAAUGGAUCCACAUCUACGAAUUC…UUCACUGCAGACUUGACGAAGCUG
This sample holds only a part of the variants without activity.
Quick list: self-aminoacylation per entry.

May I ask what self-aminoacylation has been recorded for AUUCAGCUCGGUCAUCGGGUG [Fam2.2 aminoacylation ribozyme variant] ?
5.43

Quick one: self-aminoacylation of CUACUUCAAACAAUCGAUCAG [Fam1A.1 aminoacylation ribozyme variant] ?
0.654

Name the reported self-aminoacylation value associated with the sequence AACUUUGCUAGUAGUCGCAAG [Fam3.1 aminoacylation ribozyme variant]
2.67

Please give the measured self-aminoacylation for this sequence: CUUCCCCUGGUCAUCGAGUGA [Fam2.1 aminoacylation ribozyme variant]
3.42

Which self-aminoacylation is reported for this sequence? CUACUCCAGACAAUCGGUCUG [Fam1A.1 aminoacylation ribozyme variant]
1.14

Entry CCACACUUGAAGCAAUCGGGC [Fam1B.1 aminoacylation ribozyme variant] : reported self-aminoacylation = ?
2.63

Consider the sequence CUACUUCAAACAUUCGGGCUG [Fam1A.1 aminoacylation ribozyme variant] and give its measured self-aminoacylation.
2.14

Returns the measured self-aminoacylation for the input sequence. Input: CUUACCCUGGUCAUCGAGUGU [Fam2.1 aminoacylation ribozyme variant]
9.84

---

System: biotinyl-Trp-oxazolone
Assay: self-aminoacylation, catalytic enhancement (BWO) (fold over background); higher = more active; k-Seq, kA / k0A0; sequences stand for … in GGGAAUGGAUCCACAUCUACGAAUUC…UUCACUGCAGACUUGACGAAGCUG
Fewer inactive variants are shown than the library holds.
Give Satisfied when the value for self-aminoacylation is at least 3. Give Not satisfied when it is less.

biopolymer-sequence | target-system | discrete-label
AAAUUUGCUAAUAGGCGCAAG [Fam3.1 aminoacylation ribozyme variant] | biotinyl-Trp-oxazolone | Not satisfied
AUAACCCUGGUCAUUGAGUGA [Fam2.1 aminoacylation ribozyme variant] | biotinyl-Trp-oxazolone | Satisfied
AACUUUGCUACUAGUCGCAAG [Fam3.1 aminoacylation ribozyme variant] | biotinyl-Trp-oxazolone | Not satisfied

Here's the next entry for you.
Is self-aminoacylation for AGUCACCUAGGUCAUCGGGUU [Fam2.2 aminoacylation ribozyme variant] at or above 3?
Satisfied
